Each recorded value in this set is attributed to paper PMC4674167.

I'd be grateful if you could share measured i.v. AUC0-inf for these entries.
Conditions: rat, in vivo, iv, 2.5 mg/kg
Provide the reading as a plain figure in μg.min.mL^–1.

[in] I'd like to know its i.v. AUC0-inf. The molecule in question is CCN(CC)CC.Nc1ncnc2c1ncn2[C@@H]1O[C@H](CNS(=O)(=O)NC(=O)c2ccccc2O)[C@H](F)[C@H]1O [compound 14]
[out] 366

[in] I'd like to know its i.v. AUC0-inf. The molecule in question is CCN(CC)CC.Nc1ncnc2c1ncn2[C@@H]1O[C@H](CNS(=O)(=O)NC(=O)c2ccccc2O)[C@@H](F)[C@H]1F [compound 17]
[out] 10100

[in] I'd like to know its i.v. AUC0-inf. The molecule in question is CCN(CC)CC.Nc1ncnc2c1ncn2[C@@H]1O[C@H](CNS(=O)(=O)NC(=O)c2ccccc2O)[C@@H](F)[C@H]1O [compound 15]
[out] 807

[in] I'd like to know its i.v. AUC0-inf. The molecule in question is CCN(CC)CC.Nc1ncnc2c1ncn2[C@@H]1O[C@H](CNS(=O)(=O)NC(=O)c2ccccc2O)[C@@H](O)[C@H]1F [compound 12]
[out] 1040

[in] I'd like to know its i.v. AUC0-inf. The molecule in question is CCN(CC)CC.Nc1ncnc2c1ncn2[C@@H]1O[C@H](CNS(=O)(=O)NC(=O)c2ccccc2O)[C@H](F)[C@H]1F [compound 16]
[out] 312

[in] I'd like to know its i.v. AUC0-inf. The molecule in question is CCN(CC)CC.Nc1ncnc2c1ncn2[C@@H]1O[C@H](CNS(=O)(=O)NC(=O)c2ccccc2O)[C@@H](O)[C@@H]1F [compound 13]
[out] 913

* * *

Target: MbtA (Mycobacterium tuberculosis)
Sequence (P71716 whole entry): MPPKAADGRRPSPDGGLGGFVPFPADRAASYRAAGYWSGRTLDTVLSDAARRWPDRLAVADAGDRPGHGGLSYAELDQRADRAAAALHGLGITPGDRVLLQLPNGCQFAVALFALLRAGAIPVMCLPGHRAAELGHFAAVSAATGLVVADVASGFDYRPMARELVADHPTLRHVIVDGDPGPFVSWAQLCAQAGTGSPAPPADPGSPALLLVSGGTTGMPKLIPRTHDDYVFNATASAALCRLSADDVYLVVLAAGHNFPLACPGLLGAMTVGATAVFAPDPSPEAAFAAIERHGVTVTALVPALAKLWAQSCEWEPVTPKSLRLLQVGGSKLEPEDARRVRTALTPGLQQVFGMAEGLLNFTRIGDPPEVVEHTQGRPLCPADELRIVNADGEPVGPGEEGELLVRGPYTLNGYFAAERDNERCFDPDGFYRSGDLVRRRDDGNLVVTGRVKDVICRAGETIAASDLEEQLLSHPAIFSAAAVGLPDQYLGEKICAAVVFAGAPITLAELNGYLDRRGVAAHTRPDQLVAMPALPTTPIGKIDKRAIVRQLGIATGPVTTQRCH
Type: biochemical
Conditions: read-out: Ki^app; apparent Ki against MbtA
I'd be grateful if you could share measured pKi for these entries.
Worth noting: pKi values are minus log10 of concentrations stated in mol/L.

[in] I'd like to know its pKi. The molecule in question is "CCN(CC)CC.Nc1ncnc2c1ncn2[C@@H]1O[C@H](CNS(=O)(=O)NC(=O)c2ccccc2O)[C@@H](F)[C@H]1F"
[out] 6.86

[in] I'd like to know its pKi. The molecule in question is "CCN(CC)CC.Nc1ncnc2c1ncn2[C@@H]1O[C@H](CNS(=O)(=O)NC(=O)c2ccccc2O)[C@H](F)[C@H]1F"
[out] 8.85

[in] I'd like to know its pKi. The molecule in question is "CCN(CC)CC.Nc1ncnc2c1ncn2[C@@H]1O[C@H](CNS(=O)(=O)NC(=O)c2ccccc2O)[C@H](F)[C@H]1O"
[out] 9.22

[in] I'd like to know its pKi. The molecule in question is "CCN(CC)CC.Nc1ncnc2c1ncn2[C@@H]1O[C@H](CNS(=O)(=O)NC(=O)c2ccccc2O)[C@@H](F)[C@H]1O"
[out] 8.19

* * *

Settings: rat, in vivo, iv, 2.5 mg/kg
Property Name: i.v. CL (mL.min^–1.kg^–1)
Provide the reading as a plain figure in mL.min^–1.kg^–1.

[in] I'd like to know its i.v. CL. The molecule in question is "CCN(CC)CC.Nc1ncnc2c1ncn2[C@@H]1O[C@H](CNS(=O)(=O)NC(=O)c2ccccc2O)[C@@H](F)[C@H]1O"
[out] 3.1

[in] I'd like to know its i.v. CL. The molecule in question is "CCN(CC)CC.Nc1ncnc2c1ncn2[C@@H]1O[C@H](CNS(=O)(=O)NC(=O)c2ccccc2O)[C@@H](O)[C@H]1F"
[out] 2.5

[in] I'd like to know its i.v. CL. The molecule in question is "CCN(CC)CC.Nc1ncnc2c1ncn2[C@@H]1O[C@H](CNS(=O)(=O)NC(=O)c2ccccc2O)[C@H](F)[C@H]1F"
[out] 8.5
